system: M14 melanoma; experiment: NCI-60 one-dose screen, 48 h (100 = growth as untreated, 0 = no growth, -100 = all killed); conditions: 10 µM unless noted
About 83,000 compounds went through this panel and 20% of them were active in at least one assay; those are over-represented in the sample as a whole. The source made the active and inactive calls. How the source made its calls: active means growth percent below 10; inactive means the rest.
Exercise: for every item that follows, state its recorded growth.

Return growth (reported value) for this compound: Cc1ccc(S(=O)(=O)n2cc(-c3csc(-c4cn(C)c5ncccc45)n3)c3ccccc32)cc1 34.2% (inactive)

Return growth (reported value) for this compound: Brc1cccc(-c2nc(-c3ccc4c(c3)OCCO4)co2)c1 46% [25 µM] (inactive)

Return growth (reported value) for this compound: CCC(c1ccccc1)C(CC)c1ccc(O)c(O)c1 (stereo unspecified) 96.9% (inactive)

Return growth (reported value) for this compound: C=CC[N+]1(CCO)CCN=C1CCCCCCCCCCCCC (stereo unspecified) -86.2% (active)

Return growth (reported value) for this compound: Clc1ccc(-c2nnc(COc3ccccc3Cl)o2)cc1 76.4% (inactive)

Return growth (reported value) for this compound: CCC(=O)OCc1cccc(OC)c1 96.3% (inactive)

Return growth (reported value) for this compound: CC[C@H](Nc1cc(C)nc(N)n1)c1nc2cccc(NCc3ccc(C(=O)NO)cc3)c2c(=O)n1-c1ccccc1 16.3% (inactive)

Return growth (reported value) for this compound: COc1ccc2nc3cc(Cl)ccc3c(N3CCN(c4nccc(NCc5ccccc5)n4)CC3)c2c1 96.3% (inactive)

Return growth (reported value) for this compound: O=C(Cc1ccccc1)c1ccc(Cl)cc1 101% (inactive)

Return growth (reported value) for this compound: O=c1c2cccc3c(Nc4ccccn4)ccc(c32)c2nc3ccccc3n12 91% (inactive)

Return growth (reported value) for this compound: Cc1ccc(-c2nc(/C=N/Nc3cc(C)nc4ccc(Br)cc34)c(C)o2)cc1 -50.2% (active)
